# Lookup of reported Pre-emergence action at 1280 g/ha against MATIN in % keyed by entry
- Tested on: MATIN
- assay-notes: Herbicidal pre-emergence action 2b (doubly sown, 1280 g/ha)
- Format: in vivo, Matricaria inodora
- test-parameters: doubly sown pots, dosage 1280 g/ha, visual scoring after about 3 weeks
Provide the reading as a plain figure in %.

# example entries with known answers
1) COC(=O)C(C)Oc1nn(-c2cnccn2)c(-c2ccc(F)c(F)c2)c1Br (racemic) ... 100
2) O=C(O)COc1nn(-c2cnccn2)c(-c2ccc(F)nc2)c1Br ... 100

Query `COC(=O)[C@@H](C)Oc1nn(-c2cnccn2)c(-c2cccnc2)c1Br` yields Pre-emergence action at 1280 g/ha against MATIN in % of 100

Query `COC(=O)[C@@H](C)Oc1nn(-c2nccnc2Cl)c(-c2ccc(F)nc2)c1Br` yields Pre-emergence action at 1280 g/ha against MATIN in % of 100

Query `C[C@@H](Oc1nn(-c2cnccn2)c(-c2cccc(F)c2)c1Br)C(=O)O` yields Pre-emergence action at 1280 g/ha against MATIN in % of 100

Query `COC(=O)[C@@H](C)Oc1nn(-c2cnccn2)c(-c2cccc(F)c2)c1Br` yields Pre-emergence action at 1280 g/ha against MATIN in % of 100

Query `COC(=O)COc1nn(-c2cnccn2)c(-c2cnc(F)c(F)c2)c1Br` yields Pre-emergence action at 1280 g/ha against MATIN in % of 90

Query `COC(=O)[C@@H](C)Oc1nn(-c2cnccn2)c(-c2ccc(F)nc2)c1C#N` yields Pre-emergence action at 1280 g/ha against MATIN in % of 90
